Every entry's value here was drawn from ChEMBL document CHEMBL1201861.

# System: HT-1080
# Run Description: cells
# Format: functional, cell-based
# Run Parameters: Homo sapiens
# Description: SANGER: Inhibition of human HT-1080 cell growth in a cell viability assay.
pIC50: −log10 of the molar value.

# Query Smiles, System Tested, pIC50
records = [
    ("C/C(O)=C(\\C#N)C(=O)Nc1cc(Br)ccc1Br", "HT-1080", "< 4.80"),
    ("O=c1cc(N2CCOCC2)oc2c(-c3cccc4c3sc3ccccc34)cccc12", "HT-1080", "< 5.70"),
    ("Cn1cc(/C=C2\\C(=O)Nc3cccnc32)c2ccccc21", "HT-1080", "< 5.70"),
    ("N#C/C(=C1/Nc2ccccc2S1)c1ccnc(NCCc2cccnc2)n1", "HT-1080", "< 5.10"),
]

* * *

Quick reference: pIC50 of the listed items.
# Test system: HD-MY-Z;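 note: growth inhibition of HD-MY-Z cells, read out with a cell viability assay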
# Run Description: cells
# Type: functional, cell-based
# Run Parameters: Homo sapiens
# Description: SANGER: Inhibition of human HD-MY-Z cell growth in a cell viability assay.
pIC50: −log10 of the molar value.
Measured Parameter: pIC50

# Molecule, Measured Parameter, Experimental Value
data = [
    ("CCCS(=O)(=O)Nc1ccc(F)c(C(=O)c2c[nH]c3ncc(Cl)cc23)c1F", "pIC50", "< 5.00"),
    ("C/C(O)=C(\\C#N)C(=O)Nc1cc(Br)ccc1Br", "pIC50", "< 4.80"),
    ("CC(O)(CS(=O)(=O)c1ccc(F)cc1)C(=O)Nc1ccc(C#N)c(C(F)(F)F)c1 (centres undefined) [BICALUTAMIDE]", "pIC50", "< 5.99"),
    ("CC(=O)c1c(C)c2cnc(Nc3ccc(N4CCNCC4)cn3)nc2n(C2CCCC2)c1=O", "pIC50", "< 5.40"),
]

* * *

# Tested on: SNU-387
# Run Description: cells
# Format: functional, cell-based
# Run Parameters: Homo sapiens
# Description: SANGER: Inhibition of human SNU-387 cell growth in a cell viability assay.
pIC50: −log10 of the molar value.

# Compound, pIC50
rows = [
    ("COc1cc(Nc2c(C#N)cnc3cc(OCCCN4CCN(C)CC4)c(OC)cc23)c(Cl)cc1Cl [BOSUTINIB]", "< 5.70"),
    ("NC(=O)c1ncn([C@@H]2O[C@H](COP(=O)(O)O)[C@@H](O)[C@H]2O)c1N", "< 2.70"),
    ("O=c1cc(N2CCOCC2)oc2c(-c3cccc4c3sc3ccccc34)cccc12", "< 5.70"),
]

* * *

# Test system: NCI-H2087;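 note: growth inhibition determined with a cell viability readout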
# Run Description: cells
# Format: functional, cell-based
# Run Parameters: Homo sapiens
# Description: SANGER: Inhibition of human NCI-H2087 cell growth in a cell viability assay.
As shown below, each of these compounds has a reported IC50 value.
Measured Parameter: IC50

# Query Smiles, System Tested, Experimental Value
rows = [
    ("O=c1cc(N2CCOCC2)oc2c(-c3cccc4c3sc3ccccc34)cccc12", "NCI-H2087", "> 2 µM"),
    ("CCCS(=O)(=O)Nc1ccc(F)c(C(=O)c2c[nH]c3ncc(Cl)cc23)c1F", "NCI-H2087", "> 10 µM"),
    ("CC(=O)c1c(C)c2cnc(Nc3ccc(N4CCNCC4)cn3)nc2n(C2CCCC2)c1=O", "NCI-H2087", "> 4 µM"),
    ("C[C@]12O[C@H](C[C@]1(O)CO)n1c3ccccc3c3c4c(c5c6ccccc6n2c5c31)CNC4=O", "NCI-H2087", "> 2 µM"),
]

* * *

# System: GT3TKB
# Run Description: cells
# Assay type: functional, cell-based
# Run Parameters: Homo sapiens
# Description: SANGER: Inhibition of human GT3TKB cell growth in a cell viability assay.
Below is a list of entries, each paired with its recorded IC50 value.

# Query Smiles, System Tested, IC50
data = [
    ("CCCS(=O)(=O)Nc1ccc(F)c(C(=O)c2c[nH]c3ncc(Cl)cc23)c1F", "GT3TKB", "> 10 µM"),
    ("O=c1[nH]c2ccccc2n1C1CCN(Cc2ccc(-c3nc4cc5[nH]cnc5cc4nc3-c3ccccc3)cc2)CC1", "GT3TKB", "> 2.56 µM"),
    ("Cc1ccc(NC(=O)c2cccc(C(C)(C)C#N)c2)cc1Nc1ccc2ncn(C)c(=O)c2c1", "GT3TKB", "> 4 µM"),
]
